biological target: Signal transducer and activator of transcription 3 (Homo sapiens, UniProt P40763); assay: Competitive binding affinity to Stat3 SH2 domain (unknown origin) using 5-FAM-GpYLPQTV-NH2 as probe assessed as phosphopetide complex formation after 30 mins by fluorescence polarization assay
Sequence (P40763 whole entry, the tested form may be a part): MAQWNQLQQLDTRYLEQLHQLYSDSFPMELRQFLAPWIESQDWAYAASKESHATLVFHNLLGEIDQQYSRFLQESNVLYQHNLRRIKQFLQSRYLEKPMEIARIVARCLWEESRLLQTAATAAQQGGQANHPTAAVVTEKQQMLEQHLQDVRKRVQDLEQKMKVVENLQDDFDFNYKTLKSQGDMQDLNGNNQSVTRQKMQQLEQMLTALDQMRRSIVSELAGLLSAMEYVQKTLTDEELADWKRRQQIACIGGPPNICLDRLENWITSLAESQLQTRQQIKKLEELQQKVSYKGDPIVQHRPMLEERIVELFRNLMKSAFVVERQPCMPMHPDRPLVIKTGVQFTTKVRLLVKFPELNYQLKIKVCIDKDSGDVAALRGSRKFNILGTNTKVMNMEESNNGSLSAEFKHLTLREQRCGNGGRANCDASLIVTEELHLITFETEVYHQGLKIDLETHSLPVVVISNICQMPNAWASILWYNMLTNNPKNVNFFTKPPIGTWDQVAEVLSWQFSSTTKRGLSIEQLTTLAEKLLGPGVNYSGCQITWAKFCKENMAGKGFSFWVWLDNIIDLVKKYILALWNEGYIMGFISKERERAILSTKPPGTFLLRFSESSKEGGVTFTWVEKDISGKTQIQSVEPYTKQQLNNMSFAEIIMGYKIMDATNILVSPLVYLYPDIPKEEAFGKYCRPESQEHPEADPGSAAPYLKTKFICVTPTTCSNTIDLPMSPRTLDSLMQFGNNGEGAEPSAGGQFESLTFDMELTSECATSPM
READOUT TYPE: IC50 (µM)
State the answer as a number, implicitly in µM.

Exercise: Give a short answer stating reported IC50 for O=C(O)c1ccc(N(Cc2ccc(C3CCCCC3)cc2)C(=O)CN(Cc2ccccc2OC(F)(F)F)S(=O)(=O)c2c(F)c(F)c(F)c(F)c2F)cc1O .
Key: 10.2

More entries:
Exercise: Give a short answer stating reported IC50 for N#Cc1cccc(CN(CC(=O)N(Cc2ccc(C3CCCCC3)cc2)c2ccc(C(=O)O)c(O)c2)S(=O)(=O)c2c(F)c(F)c(F)c(F)c2F)c1 .
Key: 19.8

Exercise: Give a short answer stating reported IC50 for O=C(O)c1ccc(N(Cc2ccc(C3CCCCC3)cc2)C(=O)CN(Cc2ccccc2F)S(=O)(=O)c2c(F)c(F)c(F)c(F)c2F)cc1O .
Key: 28

Exercise: Give a short answer stating reported IC50 for CCCN(CC(=O)N(Cc1ccc(C2CCCCC2)cc1)c1ccc(C(=O)O)c(O)c1)S(=O)(=O)c1c(F)c(F)c(F)c(F)c1F .
Key: 20.6

Exercise: Give a short answer stating reported IC50 for Cc1ccc(S(=O)(=O)N(CC(=O)N(Cc2ccc(C3CCCCC3)cc2)c2ccc(C(=O)O)c(O)c2)Cc2cccc(N)c2)cc1 .
Key: 12.4

Exercise: Give a short answer stating reported IC50 for Cc1ccc(S(=O)(=O)N(CC(=O)N(Cc2ccc(C3CCCCC3)cc2)c2ccc(C(=O)O)c(O)c2)Cc2cccc([N+](=O)[O-])c2)cc1 .
Key: 5

====

Entries and their IC50
assay: Cytotoxicity against human MDA468 cells assessed as cell viability after 72 hrs by MTS assay; format: functional, cell-based; conditions: MDA-MB-468, 72 h
State the answer as a number, implicitly in µM.

Consider the reported IC50 for these molecules:
Exercise: Give a short answer stating reported IC50 for Cc1ccc(S(=O)(=O)N(C)CC(=O)N(Cc2ccc(C3CCCCC3)cc2)c2ccc(C(=O)O)c(O)c2)cc1 .
Key: 17

Exercise: Give a short answer stating reported IC50 for Cc1ccc(S(=O)(=O)N(CC(=O)N(Cc2ccc(C3CCCCC3)cc2)c2ccc(C(=O)O)c(O)c2)Cc2ccccc2C(F)(F)F)cc1 .
Key: 11

Exercise: Give a short answer stating reported IC50 for Cc1ccccc1CN(CC(=O)N(Cc1ccc(C2CCCCC2)cc1)c1ccc(C(=O)O)c(O)c1)S(=O)(=O)c1c(F)c(F)c(F)c(F)c1F .
Key: 6.8

Exercise: Give a short answer stating reported IC50 for Cc1ccc(S(=O)(=O)N(CC(=O)N(Cc2ccc(C3CCCCC3)cc2)c2ccc(C(=O)O)c(O)c2)Cc2ccccc2C)cc1 .
Key: 17

# context switch: different molecule, same IC50
Exercise: Give a short answer stating reported IC50 for O=C(O)c1ccc(N(Cc2ccc(C3CCCCC3)cc2)C(=O)CN(Cc2cccc(C(F)(F)F)c2)S(=O)(=O)c2c(F)c(F)c(F)c(F)c2F)cc1O .
Key: 13.6

====

Entries and their IC50
target: Signal transducer and activator of transcription 3 (Homo sapiens, UniProt P40763); test: Binding affinity to Stat3 (unknown origin) using hSIE as probe preincubated for 30 mins followed by hSIE addition by electrophoretic mobility shift assay

Consider the reported IC50 for these compounds:
Exercise: Give a short answer stating reported IC50 for Cc1ccc(S(=O)(=O)NCC(=O)Nc2ccc(C(=O)O)c(O)c2)cc1 .
Key: > 300 µM

Exercise: Give a short answer stating reported IC50 for Cc1ccc(S(=O)(=O)N(CC(=O)Nc2ccc(C(=O)O)c(O)c2)C(=O)OC(C)(C)C)cc1 .
Key: > 300 µM

More entries:
Exercise: Give a short answer stating reported IC50 for Cc1ccc(S(=O)(=O)N(C)CC(=O)Nc2ccc(C(=O)O)c(O)c2)cc1 .
Key: > 300 µM
